- Tested on: U2OS
- ASSAY_TEXT: Multiplex assay against U2OS
- Format: toxicity, cell-based
- CONDITION_CONTEXT: human, 12 h, 10 µM, compound concentration 10 uM, replicate 2
MEASURED_PARAMETER: Population Healthy Nuclei (%)
Answers without a unit are incomplete; give the number and then its unit.

Population Healthy Nuclei (%) of CCCCC1=NC2(CCCC2)C(=O)N1Cc1ccc(-c2ccccc2-c2nnn[nH]2)cc1 [IRBESARTAN] , assay on U2OS, is 74%

Observed Population Healthy Nuclei (%), U2OS, Cc1sc2c(c1C)C(c1ccc(Cl)cc1)=N[C@@H](CC(=O)NCCCCCCCCNC(=O)COc1cccc3c1C(=O)N(C1CCC(=O)NC1=O)C3=O)c1nnc(C)n1-2 (some centres undefined) : 75%

Field Population Healthy Nuclei (%) (system: U2OS) for entry Cc1c(CC(=O)O)c2cccnc2n1Cc1ccc(S(C)(=O)=O)cc1C(F)(F)F [FEVIPIPRANT] = 73%

U2OS assay, compound O=C(NCCN1CCC(n2c(=O)[nH]c3cc(Cl)ccc32)CC1)c1ccc(F)cc1 [HALOPEMIDE] , recorded Population Healthy Nuclei (%) = 78%

// compound Cc1onc(-c2ccccc2Cl)c1C(=O)N(C)c1ccc(Cl)cc1 , assay U2OS, Population Healthy Nuclei (%) value: 56%

For the compound CCCCCC(O)/C=C/[C@H]1C(=O)CC(O)C1C/C=C\CCCC(=O)O (some centres undefined) , the measured Population Healthy Nuclei (%) on U2OS was 73%

Here COc1ccccc1N1CCN(C[C@@H](C(=O)NC(C)(C)C)c2ccccc2)CC1.Cl.Cl was tested on U2OS, and its Population Healthy Nuclei (%) came to 66%

Readout Population Healthy Nuclei (%) for CC(C)COc1ccc(CNC(=O)N(Cc2ccc(F)cc2)C2CCN(C)CC2)cc1 [PIMAVANSERIN] , test system U2OS, was 54%

Readout Population Healthy Nuclei (%) for Cl.NCCc1ccc(O)c(O)c1 [DOPAMINE HYDROCHLORIDE] , test system U2OS, was 76%
